FYI, the data here is from patent US20240270821A1.

- measured on: human glucagon receptor (human) (UniProt P47871)
- Sequence (P47871 26-477): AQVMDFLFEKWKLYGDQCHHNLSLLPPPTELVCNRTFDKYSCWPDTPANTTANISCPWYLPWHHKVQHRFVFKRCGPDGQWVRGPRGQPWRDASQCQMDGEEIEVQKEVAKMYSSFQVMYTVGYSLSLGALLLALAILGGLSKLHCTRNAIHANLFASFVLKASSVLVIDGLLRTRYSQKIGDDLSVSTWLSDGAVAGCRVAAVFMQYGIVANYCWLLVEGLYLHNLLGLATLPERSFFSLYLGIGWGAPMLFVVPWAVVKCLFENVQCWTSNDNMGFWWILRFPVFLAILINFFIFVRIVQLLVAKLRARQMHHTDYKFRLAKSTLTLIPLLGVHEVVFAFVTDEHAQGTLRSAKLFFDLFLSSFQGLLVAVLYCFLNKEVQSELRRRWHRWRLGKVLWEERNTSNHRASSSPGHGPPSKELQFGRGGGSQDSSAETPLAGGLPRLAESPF
- test summary: cell-based or functional assay
Field: label. Allowed values: fulfilled (cAMP Rel EC50, nM (1% HSA) < 400 nM) or not fulfilled (cAMP Rel EC50, nM (1% HSA) >= 400 nM).

Use the examples below as a reference point.
YXQGTFTSDFSQXLDKKAQXAFIEYLIEXGESSGAPPPSGS (acylated; synthetic construct; SITE 2: note = 2-Aminoisobutyric Acid; SITE 13: note = alpha-methyl-leucine; SITE 17: note = Lysine is chemically modified through conjugation of the epsilon-amino group of the Lysine side chain with (2-[2-(2-Amino-ethoxy)-ethoxy]-acetyl)-(gamma-Glu)-CO-(CH2) 16-CO2H; SITE 20: n) [Example 232]: not fulfilled
YXQGTFTSDFSXXLDKKAQXAFIEWLLEGGTSSGAPPPSGT (synthetic construct; SITE 2: note = 2-Aminoisobutyric Acid; SITE 12: note = L-ornithine; SITE 13: note = alpha-methyl-leucine; SITE 17: note = Lysine is chemically modified through conjugation of the epsilon-amino group of the Lysine side chain with (2-[2-(2-Amino-ethoxy)-ethoxy]-acetyl)-(gamma-Glu)) [Example 177]: not fulfilled
YXQGTXTSDYSIXLDKKAQXAFIEYLEEGGPSSGAPEPS (synthetic construct; SITE 2: note = 2-Aminoisobutyric Acid; SITE 6: note = alpha-methyl-2-fluoro-L-phenylalanine; SITE 13: note = alpha-methyl-leucine; SITE 17: note = Lysine is chemically modified through conjugation of the epsilon-amino group of the Lysine side chain with (2-[2-(2-Amino-ethoxy)-et)) [Example 423]: fulfilled

Incoming: Say whether its cAMP Rel EC50, nM (1% HSA) is strictly beneath 400 nM. Entry: YXQGTFTSDFSXXLDKKAQXAFIEYLLEAGPSSGEPPPSGT (synthetic construct; SITE 2: note = 2-Aminoisobutyric Acid; SITE 12: note = L-ornithine; SITE 13: note = alpha-methyl-leucine; SITE 17: note = Lysine is chemically modified through conjugation of the epsilon-amino group of the Lysine side chain with (2-[2-(2-Amino-ethoxy)-ethoxy]-acetyl)2-(gamma-Glu)) [Example 156]
Outgoing: not fulfilled

Incoming: Say whether its cAMP Rel EC50, nM (1% HSA) is strictly beneath 400 nM. Entry: YXQGTFTSDFSXXLDKKAQXAFIEYLLEAGPSSGAPPPSGT (not fully specified; acylated; synthetic construct; SITE 2: note = 2-Aminoisobutyric Acid; SITE 12: note = L-ornithine; SITE 13: note = alpha-methyl-leucine; SITE 17: note = Lysine is chemically modified through conjugation of the epsilon-amino group of the Lysine side chain with (gamma-Glu)2-CO-(CH2)16-CO2H; SITE 20: note = 2-Am) [Example 204]
Outgoing: not fulfilled

Incoming: Say whether its cAMP Rel EC50, nM (1% HSA) is strictly beneath 400 nM. Entry: YXQGTFTSDYSXXLDKKAQXAFIEYLLEGGESSGAPPPSGS (synthetic construct; SITE 2: note = 2-Aminoisobutyric Acid; SITE 12: note = L-ornithine; SITE 13: note = alpha-methyl-leucine; SITE 17: note = Lysine is chemically modified through conjugation of the epsilon-amino group of the Lysine side chain with (2-[2-(2-Amino-ethoxy)-ethoxy]-acetyl)-(gamma-Glu)) [Example 359]
Outgoing: not fulfilled

Incoming: Say whether its cAMP Rel EC50, nM (1% HSA) is strictly beneath 400 nM. Entry: YXQGTFTSDFSQXLDKKAQXAFIEYLLEAGPSSXAPPPSGT (synthetic construct; SITE 2: note = 2-Aminoisobutyric Acid; SITE 13: note = alpha-methyl-leucine; SITE 17: note = Lysine is chemically modified through conjugation of the epsilon-amino group of the Lysine side chain with (2-[2-(2-Amino-ethoxy)-ethoxy]-acetyl)-(gamma-Glu)-CO-(CH2) 16-CO2H; SITE 20: n) [Example 779]
Outgoing: not fulfilled

Incoming: Say whether its cAMP Rel EC50, nM (1% HSA) is strictly beneath 400 nM. Entry: YXQGTFTSDXSXXLDKKAQXAFIEYLIAGGPSSGAPPPSGSEE (Lys acylated (γGlu)2-C18 diacid; non-natural residues; C-amide; synthetic construct; SITE 2: note = 2-Aminoisobutyric Acid; SITE 10: note = 3-(4-Pyridyl)-L-alanine; SITE 12: note = L-ornithine; SITE 13: note = alpha-methyl-leucine; SITE 17: note = Lysine is chemically modified through conjugation of the epsilon-amino group of the Lysine side chain with (gamma-Gl)) [Example 961]
Outgoing: fulfilled

Incoming: Say whether its cAMP Rel EC50, nM (1% HSA) is strictly beneath 400 nM. Entry: YXQGTXTSDXXIXLDXKAQXXFIEXLAEGGPSSGEPPPE (synthetic construct; SITE 2: note = 2-Aminoisobutyric Acid; SITE 6: note = alpha-methyl-2-fluoro-L-phenylalanine; SITE 10: note = 3-(4-Pyridyl)-L-alanine; SITE 11: note = alpha-methyl-L-serine; SITE 13: note = alpha-methyl-leucine; SITE 16: note = L-ornithine; SITE 17: note = Lysine is chemically mo) [Example 437]
Outgoing: fulfilled

Incoming: Say whether its cAMP Rel EC50, nM (1% HSA) is strictly beneath 400 nM. Entry: YXQGTFTSDXSXXLDKKAQXAFIEXLIAGGPSSGEPPPSGS (Aib, 4Pal, Orn, αMeL, Me4Pal, αMeY; γGlu2-C18 diacid Lys; amide; synthetic construct; SITE 2: note = 2-Aminoisobutyric Acid; SITE 10: note = 3-(4-Pyridyl)-L-alanine; SITE 12: note = L-ornithine; SITE 13: note = alpha-methyl-leucine; SITE 17: note = Lysine is chemically modified through conjugation of the epsilon-amino group of the Lysine side chain with (gamma-Gl)) [Example 1014]
Outgoing: fulfilled

Incoming: Say whether its cAMP Rel EC50, nM (1% HSA) is strictly beneath 400 nM. Entry: YXQGTFTSDFSXXLDKKAQXAFIEWLLEGGHSSGAPPPSGS (synthetic construct; SITE 2: note = 2-Aminoisobutyric Acid; SITE 12: note = L-ornithine; SITE 13: note = alpha-methyl-leucine; SITE 17: note = Lysine is chemically modified through conjugation of the epsilon-amino group of the Lysine side chain with (2-[2-(2-Amino-ethoxy)-ethoxy]-acetyl)-(gamma-Glu)) [Example 170]
Outgoing: not fulfilled

Incoming: Say whether its cAMP Rel EC50, nM (1% HSA) is strictly beneath 400 nM. Entry: YXQGTXTSDYXIXLDXKAQXAFIEYLLEGGPSSGEPPPE (synthetic construct; SITE 2: note = 2-Aminoisobutyric Acid; SITE 6: note = alpha-methyl-L-phenylalanine; SITE 11: note = alpha-methyl-L-serine; SITE 13: note = alpha-methyl-leucine; SITE 16: note = L-ornithine; SITE 17: note = Lysine is chemically modified through conjugation of the epsilon-amino gr) [Example 420]
Outgoing: not fulfilled
